# STUDY_TARGET: integrin α4β1 (RAMOS human cells adhering to VCAM-1) (Homo sapiens, UniProt P05556+P13612)
# Construct: Ramos cells, which express integrin α4β1; host or cells: RAMOS
# TEST_METHOD_NOTES: Integrin α4β1-VCAM cell adhesion assay (RAMOS cells)
# Type: cell-based
# ASSAY_CONDITIONS: ratio of cell adhesion IC50s, Ramos α4β1/VCAM over RPMI8866 α4β7/MAdCAM
Recorded Ratio Ramos/RPMI, one value per entry.
MEASURED_ENDPOINT: Ratio Ramos/RPMI

[[record]]
chemical_smiles = "CC(C)C[C@@H]1NC(=O)c2ccc(-c3ccc(N4CCN(C(=O)c5cc6ccccc6c(Cc6c(O)c(C(=O)N7CCN(c8ccc(-c9ccc%10cc9CNC(=O)[C@@H]9CCCN9[C@H](C(=O)NC(C)(C)C)[C@H](C)NC(=O)[C@H]([C@@H](C)O)NC(=O)[C@H](CC(=O)O)NC(=O)[C@H](CC(C)C)NC%10=O)cc8)CC7)cc7ccccc67)c5O)CC4)cc3)c(c2)CNC(=O)[C@@H]2CCCN2[C@H](C(=O)NC(C)(C)C)[C@H](C)NC(=O)[C@H]([C@@H](C)O)NC(=O)[C@H](CC(=O)O)NC1=O"
result_value = 8

[[record]]
chemical_smiles = "CC(C)C[C@@H]1NC(=O)C[C@H](CCCCN)N(C)C(=O)[C@H](CCCCNC(=O)c2ccccc2-c2ccccc2C(=O)NCCCC[C@@H]2NC(=O)[C@@H]3CCCN3[C@H](C(=O)NC(C)(C)C)[C@H](C)NC(=O)[C@H]([C@@H](C)O)NC(=O)[C@H](CC(=O)O)NC(=O)[C@H](CC(C)C)NC(=O)C[C@H](CCCCN)N(C)C2=O)NC(=O)[C@@H]2CCCN2[C@H](C(=O)NC(C)(C)C)[C@H](C)NC(=O)[C@H]([C@@H](C)O)NC(=O)[C@H](CC(=O)O)NC1=O"
result_value = 634


* * *

# STUDY_TARGET: recombinant integrin α4β7 (Homo sapiens, UniProt P13612+P26010, DEL724-798)
# Construct: purchased R&D Systems 5397-A3-050
# Sequence (P13612 34-970 limits assumed): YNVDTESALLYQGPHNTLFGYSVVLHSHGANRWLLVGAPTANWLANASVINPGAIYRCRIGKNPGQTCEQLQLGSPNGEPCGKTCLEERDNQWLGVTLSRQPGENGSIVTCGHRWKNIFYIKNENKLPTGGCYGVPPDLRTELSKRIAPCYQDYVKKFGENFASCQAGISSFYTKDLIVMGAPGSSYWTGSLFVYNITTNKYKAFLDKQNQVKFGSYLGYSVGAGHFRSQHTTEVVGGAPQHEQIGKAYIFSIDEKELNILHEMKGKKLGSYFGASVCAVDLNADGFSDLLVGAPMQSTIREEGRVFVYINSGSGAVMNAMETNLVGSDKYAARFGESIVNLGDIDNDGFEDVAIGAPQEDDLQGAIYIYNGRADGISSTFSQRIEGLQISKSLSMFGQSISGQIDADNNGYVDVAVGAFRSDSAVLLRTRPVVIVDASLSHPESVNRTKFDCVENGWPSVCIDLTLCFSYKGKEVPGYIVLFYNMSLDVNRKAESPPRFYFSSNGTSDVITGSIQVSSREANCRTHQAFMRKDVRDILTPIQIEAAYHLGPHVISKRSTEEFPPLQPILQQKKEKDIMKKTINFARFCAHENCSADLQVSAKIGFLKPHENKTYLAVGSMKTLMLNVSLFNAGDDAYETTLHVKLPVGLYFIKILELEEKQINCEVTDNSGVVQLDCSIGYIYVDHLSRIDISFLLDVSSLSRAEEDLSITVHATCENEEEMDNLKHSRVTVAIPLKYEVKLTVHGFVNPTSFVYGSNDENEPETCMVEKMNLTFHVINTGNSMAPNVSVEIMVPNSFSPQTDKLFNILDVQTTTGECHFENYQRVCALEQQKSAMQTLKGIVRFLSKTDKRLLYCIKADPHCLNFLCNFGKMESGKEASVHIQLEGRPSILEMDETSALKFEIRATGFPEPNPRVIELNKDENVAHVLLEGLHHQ
# Sequence (P26010 20-723 limits assumed): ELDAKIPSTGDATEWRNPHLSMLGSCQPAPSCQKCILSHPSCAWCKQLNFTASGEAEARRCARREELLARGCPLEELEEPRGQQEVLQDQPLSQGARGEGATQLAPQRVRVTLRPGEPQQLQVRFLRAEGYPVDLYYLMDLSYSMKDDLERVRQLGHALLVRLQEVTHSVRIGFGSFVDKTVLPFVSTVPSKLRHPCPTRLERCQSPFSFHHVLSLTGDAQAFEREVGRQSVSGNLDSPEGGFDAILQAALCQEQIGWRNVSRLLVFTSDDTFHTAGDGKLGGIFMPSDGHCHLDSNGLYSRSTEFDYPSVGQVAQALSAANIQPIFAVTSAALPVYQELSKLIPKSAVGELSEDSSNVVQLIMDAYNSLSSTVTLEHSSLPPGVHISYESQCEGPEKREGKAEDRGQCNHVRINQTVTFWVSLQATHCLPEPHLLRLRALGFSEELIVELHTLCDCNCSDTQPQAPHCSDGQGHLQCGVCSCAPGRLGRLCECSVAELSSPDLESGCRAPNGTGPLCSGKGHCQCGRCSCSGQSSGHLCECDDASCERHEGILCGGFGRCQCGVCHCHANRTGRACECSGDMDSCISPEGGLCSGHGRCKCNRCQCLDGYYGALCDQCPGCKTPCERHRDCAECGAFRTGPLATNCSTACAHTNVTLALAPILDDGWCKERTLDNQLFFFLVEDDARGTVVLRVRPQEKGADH
# TEST_METHOD_NOTES: Integrin α4β7—MAdCAM-1 ELISA competition assay
# Type: binding
# ASSAY_CONDITIONS: read-out: ELISA α4β7 Assay IC50
pIC50: −log10 of the molar value.
Recorded pIC50, one value per entry.
MEASURED_ENDPOINT: pIC50

[[record]]
chemical_smiles = "CC(C)C[C@@H]1NC(=O)c2ccc(-c3ccc(N4CCN(C(=O)[C@H](CCCCNC(=O)CCCCCC(=O)NCCCC[C@H](NC(=O)OCc5ccccc5)C(=O)N5CCN(c6ccc(-c7ccc8cc7CNC(=O)[C@@H]7CCCN7[C@H](C(=O)NC(C)(C)C)[C@H](C)NC(=O)[C@H]([C@@H](C)O)NC(=O)[C@H](CC(=O)O)NC(=O)[C@H](CC(C)C)NC8=O)cc6)CC5)NC(=O)OCc5ccccc5)CC4)cc3)c(c2)CNC(=O)[C@@H]2CCCN2[C@H](C(=O)NC(C)(C)C)[C@H](C)NC(=O)[C@H]([C@@H](C)O)NC(=O)[C@H](CC(=O)O)NC1=O"
measured_endpoint = "pIC50"
result_value = 7.92

[[record]]
chemical_smiles = "CC(C)C[C@@H]1NC(=O)C[C@H](CCCCN)N(C)C(=O)[C@H](CCCCNC(=O)c2ccccc2-c2ccccc2C(=O)NCCCC[C@@H]2NC(=O)[C@@H]3CCCN3[C@H](C(=O)NC(C)(C)C)[C@H](C)NC(=O)[C@H]([C@@H](C)O)NC(=O)[C@H](CC(=O)O)NC(=O)[C@H](CC(C)C)NC(=O)C[C@H](CCCCN)N(C)C2=O)NC(=O)[C@@H]2CCCN2[C@H](C(=O)NC(C)(C)C)[C@H](C)NC(=O)[C@H]([C@@H](C)O)NC(=O)[C@H](CC(=O)O)NC1=O"
measured_endpoint = "pIC50"
result_value = 8.07

